B1: NP_006221.1 (parent)
chain: CQPISFSGFGAEDDDLGGLGLGP

# Variants of: B1
# PROTOCOL TEXT: protein stability index of a GFP-peptide fusion (GPS, HEK-293T) (PSI 1-6); higher = more stable;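 further: lentivirally expressed fusion library, cells FACS-sorted into six equal-sized GFP/DsRed ratio bins, PSI computed from sequencing read fractions per bin weighted by bin number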
# EXPERIMENTAL SETUP: c terminus: native
Measured protein stability index, listed per entry.
Would you mind answering with just the numeric figure?

Q: Input P23S , output reported protein stability index.
A: 4.5

Q: Input I4C , output reported protein stability index.
A: 2.43

Q: Input L21V , output reported protein stability index.
A: 3.37

Q: Input D15Q , output reported protein stability index.
A: 2.67

Q: Input S7E , output reported protein stability index.
A: 2.72

Q: Input G17H , output reported protein stability index.
A: 2.17

Q: Input L21D , output reported protein stability index.
A: 5.19

Q: Input C1M , output reported protein stability index.
A: 2.34

Q: Input P3V , output reported protein stability index.
A: 2.14
